Reference source: paper PMC4552634

% Inhibition listing for selected compounds.
Test system: P. falciparum stage V gametocytes
Set-up: BacTiter-Glo ATP luminescence viability of purified stage V gametocytes in 384-well plates, per cent inhibition versus DMSO
cond: 48 h, 5 µM; inhibitor
About 3,200 (25%) of roughly 13,000 compounds showed an effect of 50% or more. The list shows a part of the results.

- compound: "Cc1ccc(CN2CCCN(Cc3cccc(NC(=O)c4ccc(Cl)c(Cl)c4)c3)CC2)cc1 [TCMDC-141835]"
  % Inhibition: "80.74%"

(Q) Record request: % Inhibition value, item O=C(Nc1cccc(CN2CCCN(Cc3ccc(O)cc3)CC2)c1)c1ccc(Cl)c(Cl)c1 [TCMDC-141834]
(A) -18.14%

(Q) What do we get for Cc1ccc(C(=O)Nc2cccc(CN3CCCN(Cc4ccc(O)cc4)CC3)c2)cc1 [TCMDC-141815] ?
(A) 21.11%

(Q) Same again, this time with O=C(Nc1cccc(CN2CCCN(CC3CCCCC3)CC2)c1)c1ccc(Cl)c(Cl)c1 [TCMDC-141818]
(A) -34.63%
